Test system: Onchocerca volvulus
Experiment: Antiparasitic activity against Onchocerca volvulus assessed as inhibition of L3 to L4 larval molting at 10 uM for 24 hrs measured until 6 days by using inverted microscopic analysis in presence of PBMC
Format: functional, organism-based
Active and inactive are the calls of the source. No cut-off for these calls is given here.
Lab note: assign the record to one of true = active, false = inactive

Can you look up the reported call for O=C(Nc1ccc(Oc2ccc(Cl)cc2)c(Cl)c1)c1cc(I)cc(I)c1O [RAFOXANIDE] for me?
true

// return assay outcome for `COc1c(I)cc(I)cc1C(=O)Nc1ccc2ccccc2c1`
true

# lookup: test call for N#CC(C#N)=NNc1cccc(Cl)c1 [CARBONYL CYANIDE M-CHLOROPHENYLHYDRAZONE]
true

Recorded call for `COc1c(I)cc(I)cc1C(=O)O` ?
false

// outcome(item) with item = `O=C(Nc1ccc(Oc2ccc(Cl)cc2)cc1)c1cc(I)cc(I)c1O`
true

Hi, sorry to bother you, what did the test record for `COc1c(I)cc(I)cc1C(=O)Nc1ccc(Oc2ccc(Cl)cc2)cc1` ?
true

State the result this test recorded for `O=C(Nc1ccc2ccccc2c1)c1cc(I)cc(I)c1O` .
true
